Tested on: HOP-92 NSCLC
Test: NCI-60 one-dose screen, 48 h
Conditions: 10 µM unless noted
Protocol: Growth inhibition of the HOP-92 human Non-Small Cell Lung tumor cell line is measured as a screen for anti-cancer activity. Cells are grown in 96 well plates and exposed to the test compound for 48 hours. Compounds are tested at a single concentration, which is 10^-5 M for most compounds. The reported endpoint is percent growth (GI% or GIPRCNT), where numbers from 0 - 100% represent growth inhibition, and numbers from -100% - 0 represent cell death. […]
Compounds without any hit were thinned out: in the full panel of roughly 83,000, 20% have a hit. Activity calls are given as the source filed them. The calls were made as follows: active = growth percent below 10; inactive = the rest.
Outcome codes: active, inactive

[[record]]
compound = "O=C(O)CCNS(=O)(=O)c1ccc(-c2ccccc2)cc1"
classification = "inactive"

[[record]]
compound = "O=C(/C=C(\\Nc1ccccc1)c1ccccc1)c1cn(-c2ccc([N+](=O)[O-])cc2)nn1"
classification = "inactive"

[[record]]
compound = "Cc1ccc(-c2c3c(N)nc(-c4ccncc4)nc3nc3c2c(C)nn3-c2ccccc2)cc1"
classification = "active"

[[record]]
compound = "C[C@H](C(=O)N[C@@H](Cc1ccc(-c2ccccc2)cc1)C(=O)NC1CC(C)(C)N(C)C(C)(C)C1)c1ccc(-c2ccccc2)c(F)c1"
classification = "active"

[[record]]
compound = "O=Cc1ncc(-c2ccc(C(F)(F)F)cc2)c(NC2CCCCCC2)n1"
classification = "active"

[[record]]
compound = "CCOC(=O)c1sc(NC(=O)COc2ccc(/C=C3\\CCc4cc(OC)ccc4C3=O)cc2)nc1C"
classification = "inactive"

[[record]]
compound = "O=C(Nc1ccc(Cl)cc1)Nc1ccccc1CNc1nc(Nc2ccc(OCCN3CCCC3)cc2)ncc1Cl"
classification = "inactive"

[[record]]
compound = "CC[n+]1c(/C=C/c2ccc(N3CCCC3)cc2)cccc1/C=C/c1ccc(N2CCCC2)cc1"
classification = "active"

[[record]]
compound = "Cc1cn(C(C=O)OC(C=O)CO)c(=O)[nH]c1=O (centres undefined)"
classification = "inactive"

